- System: 786-0
- assay: Growth inhibition of human 786-0 cells assessed as cell viability at 10 uM incubated for 48 hrs by sulforhodamine B assay
- Type: functional
- measurementConditions: 786-0, 48 h, read-out: Activity
// viability at 10 µM lookup, one value per entry
propertyName: viability at 10 µM (%)

compound="O=C(NCc1ccccc1)NS(=O)(=O)c1ccc(N2N=C(c3cc4ccccc4oc3=O)CC2c2cccs2)cc1 (stereo not given)" targetorsystem=786-0 propertyname="viability at 10 µM" reportedresult=95.3
compound="COc1ccc(C2CC(c3cc4ccccc4oc3=O)=NN2c2ccc(S(=O)(=O)NC(=O)Nc3ccccc3C)cc2)cc1 (stereo not given)" targetorsystem=786-0 propertyname="viability at 10 µM" reportedresult=94.2
compound="CN(C)c1ccc(C2CC(c3cc4ccccc4oc3=O)=NN2c2ccc(S(=O)(=O)NC(=O)NCc3ccccc3)cc2)cc1 (stereo not given)" targetorsystem=786-0 propertyname="viability at 10 µM" reportedresult=68.4
compound="COc1ccc(C2CC(c3ccco3)=NN2c2ccc(S(=O)(=O)NC(=O)NCc3ccccc3)cc2)cc1 (stereo not given)" targetorsystem=786-0 propertyname="viability at 10 µM" reportedresult=98.6
compound="COc1ccc(NC(=O)NS(=O)(=O)c2ccc(N3N=C(c4cc5ccccc5oc4=O)CC3c3ccc(N(C)C)cc3)cc2)cc1 (stereo not given)" targetorsystem=786-0 propertyname="viability at 10 µM" reportedresult=96.9

* * *

- Tested on: HCT-116
- assay: Growth inhibition of human HCT116 cells assessed as cell viability at 10 uM incubated for 48 hrs by sulforhodamine B assay
- Type: functional
- measurementConditions: HCT-116, 48 h, read-out: Activity
propertyName: viability at 10 µM (%)

compound="O=C(NCc1ccccc1)NS(=O)(=O)c1ccc(N2N=C(c3cc4ccccc4oc3=O)CC2c2cccs2)cc1 (stereo not given)" propertyname="viability at 10 µM" reportedresult=106
compound="COc1ccc(C2CC(c3ccco3)=NN2c2ccc(S(=O)(=O)NC(=O)NCc3ccccc3)cc2)cc1 (stereo not given)" propertyname="viability at 10 µM" reportedresult=93.9
compound="COc1ccc(NC(=O)NS(=O)(=O)c2ccc(N3N=C(c4cc5ccccc5oc4=O)CC3c3ccc(N(C)C)cc3)cc2)cc1 (stereo not given)" propertyname="viability at 10 µM" reportedresult=82.6
compound="CN(C)c1ccc(C2CC(c3cc4ccccc4oc3=O)=NN2c2ccc(S(=O)(=O)NC(=O)NCc3ccccc3)cc2)cc1 (stereo not given)" propertyname="viability at 10 µM" reportedresult=48.5
compound="COc1ccc(C2CC(c3cc4ccccc4oc3=O)=NN2c2ccc(S(=O)(=O)NC(=O)Nc3ccccc3C)cc2)cc1 (stereo not given)" propertyname="viability at 10 µM" reportedresult=82.6

* * *

- System: OVCAR-5
- assay: Growth inhibition of human OVCAR5 cells assessed as cell viability at 10 uM incubated for 48 hrs by sulforhodamine B assay
- Type: functional
- measurementConditions: OVCAR-5, 48 h, read-out: Activity
propertyName: viability at 10 µM (%)

compound="COc1ccc(C2CC(c3cc4ccccc4oc3=O)=NN2c2ccc(S(=O)(=O)NC(=O)Nc3ccccc3C)cc2)cc1 (stereo not given)" unittag=% reportedresult=83.1
compound="COc1ccc(C2CC(c3ccco3)=NN2c2ccc(S(=O)(=O)NC(=O)NCc3ccccc3)cc2)cc1 (stereo not given)" unittag=% reportedresult=102
compound="O=C(NCc1ccccc1)NS(=O)(=O)c1ccc(N2N=C(c3cc4ccccc4oc3=O)CC2c2cccs2)cc1 (stereo not given)" unittag=% reportedresult=111
compound="COc1ccc(NC(=O)NS(=O)(=O)c2ccc(N3N=C(c4cc5ccccc5oc4=O)CC3c3ccc(N(C)C)cc3)cc2)cc1 (stereo not given)" unittag=% reportedresult=102
compound="CN(C)c1ccc(C2CC(c3cc4ccccc4oc3=O)=NN2c2ccc(S(=O)(=O)NC(=O)NCc3ccccc3)cc2)cc1 (stereo not given)" unittag=% reportedresult=74.6
